Read-out: Interleukin-8 (IL8), CXCL8 (gene 3576)
experiment.notes: BSK_CASM3C_IL8: BioMAP Diversity Plus: CASM3C Assay for Interleukin-8 (IL8) Biomarker Activity (AID 2283042);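 further: IL-8 protein level quantified by ELISA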
conditions: primary human coronary artery smooth muscle cells; actives raise or lower the signal
Active and inactive are the calls of the source. How the source made its calls: active means hit-call score of the fitted dose curve at least 0.9, where 1 is the maximum; inactive means score below 0.9.
Use one of these outcomes when replying: True for active, False for inactive

>  <compound>
COc1cccc(O)c1

>  <group.label>
False

$$$$
>  <compound>
O=C1NS(=O)(=O)c2ccccc21

>  <group.label>
False

$$$$
>  <compound>
C=CC(=C)CC/C=C(\C)CCC=C(C)C

>  <group.label>
False

$$$$
>  <compound>
C=CC(=O)OCCC(F)(F)C(F)(F)C(F)(F)C(F)(F)C(F)(F)C(F)(F)C(F)(F)C(F)(F)F

>  <group.label>
False

$$$$
>  <compound>
CCCCCCCCCCCCCCC

>  <group.label>
False

$$$$

input: In this assay, the call recorded for OCC(F)(F)C(F)(F)C(F)(F)C(F)(F)C(F)(F)C(F)(F)C(F)(F)C(F)(F)C(F)(F)C(F)(F)C(F)(F)F was what?
output: False

input: In this assay, the call recorded for CCOC(=O)CN[C@@H](C(=O)N1CC[C@H]1C(=O)NCc1ccc(/C(N)=N/O)cc1)C1CCCCC1 was what?
output: False

input: In this assay, the call recorded for CN(C)CCOC(c1ccccc1)c1ccccc1 was what?
output: False

input: In this assay, the call recorded for Cc1ccc(C(=O)c2ccccc2)cc1 was what?
output: True

input: In this assay, the call recorded for C=CC(C)(CCC=C(C)C)OC(C)=O (stereo not given) was what?
output: False

----------
measured.target: Transcriptional activator Myb (Homo sapiens)
experiment.notes: ATG_Myb_CIS: Attagene CIS-FACTORIAL HepG2 Assay for human Myeloblastosis (Myb) Proto-Oncogene Transcription Factor (AID 2282986)
conditions: HepG2 Attagene CIS-FACTORIAL Myb reporter transcription; actives raise or lower the signal
Active and inactive are the calls of the source. The calls were made as follows: active = hit-call score of the fitted dose curve at least 0.9, where 1 is the maximum; inactive = score below 0.9.
parameter: outcome

>  <molecule>
CCN(CC)CC

>  <parameter>
outcome

>  <observed.result>
inactive

$$$$
>  <molecule>
O=C(c1cc(O)c(O)c(O)c1)c1ccc(O)c(O)c1O

>  <parameter>
outcome

>  <observed.result>
inactive

$$$$
>  <molecule>
CCCCc1oc2ccccc2c1C(=O)c1cc(I)c(OCCN(CC)CC)c(I)c1

>  <parameter>
outcome

>  <observed.result>
inactive

$$$$
>  <molecule>
OCC1CCC(CO)CC1 (stereo not given)

>  <parameter>
outcome

>  <observed.result>
inactive

$$$$

Moving on to the next molecule.
input: Please look up its outcome: C=CC(F)(F)C(F)(F)C(F)(F)C(F)(F)F
output: inactive

----------
Read-out: Vascular cell adhesion molecule 1 (VCAM1), VCAM1 (gene 7412)
experiment.notes: BSK_hDFCGF_VCAM1: BioMAP Diversity Plus: hDFCGF Assay for Vascular cell adhesion molecule 1 (VCAM1) Biomarker Activity (AID 2283065)
conditions: primary human foreskin fibroblasts; actives raise or lower the signal
Description: BSK_hDFCGF is a cell-based, multiplexed-readout assay that uses foreskin fibroblast, a human skin primary cell, with measurements taken at 24 hours after chemical dosing in a 96-well plate.BSK_hDFCGF_VCAM1 is an assay component measured in the BSK_hDFCGF assay. It measures VCAM-1 antibody related to regulation of gene expression using ELISA technology.Data from the assay component BSK_hDFCGF_VCAM1 was analyzed into 1 assay endpoint. […]
Activity calls are given as the source filed them. How the source made its calls: active means hit-call score of the fitted dose curve at least 0.9, where 1 is the maximum; inactive means score below 0.9.
Use one of these outcomes when replying: true for active, false for inactive

These solved cases illustrate the format of a correct answer.
>  <molecule>
N=C(N)c1ccc(OCCCCCOc2ccc(C(=N)N)cc2)cc1

>  <group.label>
true

$$$$
>  <molecule>
O=C(O)CCC(F)(F)C(F)(F)C(F)(F)C(F)(F)C(F)(F)F

>  <group.label>
false

$$$$
>  <molecule>
O=C1c2ccc(O)c(O)c2C(=O)c2c(O)ccc(O)c21

>  <group.label>
false

$$$$
>  <molecule>
OCCN1CN(CCO)CN(CCO)C1

>  <group.label>
true

$$$$
>  <molecule>
CC(C)(C)c1ccc(O)c(O)c1

>  <group.label>
true

$$$$
>  <molecule>
CCCCC=O

>  <group.label>
false

$$$$

input: In this assay, the call recorded for CS(=O)(=O)c1ccc([C@@H](CC2CCCC2)C(=O)Nc2cnccn2)cc1Cl was what?
output: false

input: In this assay, the call recorded for CCCCC(CC)C(=O)OCCOCCOCCOCCOC(=O)C(CC)CCCC (stereo not drawn) was what?
output: false

input: In this assay, the call recorded for CC(=O)Nc1ccc(O)cc1 was what?
output: false

input: In this assay, the call recorded for CCCCc1oc2ccccc2c1C(=O)c1cc(I)c(OCCN(CC)CC)c(I)c1 was what?
output: true

input: In this assay, the call recorded for O=C(CC(=O)C(F)(F)C(F)(F)C(F)(F)F)c1cccs1 was what?
output: false

input: In this assay, the call recorded for CC1=NN(c2ccccc2)C(=O)C1 was what?
output: false

input: In this assay, the call recorded for Cc1[nH]nc2c1N=C(c1ccccc1Cl)c1cc([N+](=O)[O-])ccc1N2 was what?
output: false

----------
Read-out: Interleukin-1 alpha (IL1a), IL1A (gene 3552)
experiment.notes: BSK_KF3CT_IL1a: BioMAP Diversity Plus: KF3CT Assay for Interleukin-1 alpha (IL1a) Biomarker Activity (AID 2283070)
conditions: primary human keratinocytes with fibroblasts; actives raise or lower the signal
Active and inactive are the calls of the source. The calls were made as follows: active = hit-call score of the fitted dose curve at least 0.9, where 1 is the maximum; inactive = score below 0.9.
Use one of these outcomes when replying: active, inactive

>  <compound>
Oc1ccc(Cc2ccccc2O)cc1

>  <group.label>
inactive

$$$$
>  <compound>
O=C(CC(=O)C(F)(F)C(F)(F)C(F)(F)F)c1cccs1

>  <group.label>
inactive

$$$$
>  <compound>
Cc1[nH]nc2c1N=C(c1ccccc1Cl)c1cc([N+](=O)[O-])ccc1N2

>  <group.label>
inactive

$$$$
>  <compound>
Oc1cc2ccccc2cc1O

>  <group.label>
inactive

$$$$
>  <compound>
O=C(O)CCC(F)(F)C(F)(F)C(F)(F)C(F)(F)C(F)(F)F

>  <group.label>
inactive

$$$$
>  <compound>
CCCCC(CC)C(=O)OCCOCCOCCOCCOC(=O)C(CC)CCCC (stereo not given)

>  <group.label>
inactive

$$$$

input: In this assay, the call recorded for C[C@]12CC[C@@H]3c4ccc(O)cc4CC[C@H]3[C@@H]1C[C@@H](O)[C@@H]2O was what?
output: inactive

input: In this assay, the call recorded for CCOC(=O)CN[C@@H](C(=O)N1CC[C@H]1C(=O)NCc1ccc(/C(N)=N/O)cc1)C1CCCCC1 was what?
output: inactive

input: In this assay, the call recorded for CN(C)c1ccc(C(=C2C=CC(=[N+](C)C)C=C2)c2ccccc2)cc1 was what?
output: active

input: In this assay, the call recorded for O=C1NS(=O)(=O)c2ccccc21 was what?
output: inactive

input: In this assay, the call recorded for C=CC(=O)OCCC(F)(F)C(F)(F)C(F)(F)C(F)(F)C(F)(F)C(F)(F)C(F)(F)C(F)(F)F was what?
output: inactive

input: In this assay, the call recorded for O=C(NCc1ncc(C(F)(F)F)cc1Cl)c1c(Cl)cccc1Cl was what?
output: inactive

input: In this assay, the call recorded for N=C(N)c1ccc(OCCCCCOc2ccc(C(=N)N)cc2)cc1 was what?
output: inactive

input: In this assay, the call recorded for CCC(C)c1ccccc1O (stereo not given) was what?
output: inactive

input: In this assay, the call recorded for CCCCC(CC)C(=O)O (stereo not given) was what?
output: inactive

----------
Read-out: Tissue Factor, F3 (gene 2152)
experiment.notes: BSK_CASM3C_TissueFactor: BioMAP Diversity Plus: CASM3C Assay for Tissue Factor Biomarker Activity (AID 2283052);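 further: cell surface tissue factor protein level read by ELISA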
conditions: primary human coronary artery smooth muscle cells; actives raise or lower the signal
Active and inactive are the calls of the source. The calls were made as follows: active = hit-call score of the fitted dose curve at least 0.9, where 1 is the maximum; inactive = score below 0.9.
Use one of these outcomes when replying: 1 (active), -1 (inactive)

These solved cases illustrate the format of a correct answer.
>  <compound>
COc1cc(OC)nc(NC(=O)NS(=O)(=O)Nc2ccccc2C(=O)N(C)C)n1

>  <group.label>
-1

$$$$
>  <compound>
Cc1cccc2c1ccc1ccccc12

>  <group.label>
-1

$$$$
>  <compound>
CS(=O)(=O)c1ccc([C@@H](CC2CCCC2)C(=O)Nc2cnccn2)cc1Cl

>  <group.label>
-1

$$$$
>  <compound>
CCCCC(CC)C(=O)O (stereo not drawn)

>  <group.label>
-1

$$$$
>  <compound>
CCCCCCCCCCCC

>  <group.label>
-1

$$$$

input: In this assay, the call recorded for COC1=CC(=O)C[C@@H](C)[C@]12Oc1c(Cl)c(OC)cc(OC)c1C2=O was what?
output: 1

input: In this assay, the call recorded for CN(Cc1cnc2nc(N)nc(N)c2n1)c1ccc(C(=O)N[C@@H](CCC(=O)O)C(=O)O)cc1 was what?
output: -1

input: In this assay, the call recorded for Oc1ccc(Cc2ccccc2O)cc1 was what?
output: -1

input: In this assay, the call recorded for CC(C)(C)c1ccc(O)c(O)c1 was what?
output: -1

input: In this assay, the call recorded for O=C(CCCN1CCC(O)(c2ccc(Cl)cc2)CC1)c1ccc(F)cc1 was what?
output: -1
